Assay: HepG2 cytotoxicity, primary screen, cytotoxicity control for P. falciparum antimalarial project, cell-based, ATP luminescence (AID 2303);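 note: 0% = DMSO wells and 100% = digitonin-killed cells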
Conditions: HepG2 viability, 24-48 h, at 10 µM, stronger effect = higher value
Mark met for inhibition under 30%, not met if at or over.

Answered examples (8):
[[record]]
compound = "Oc1ccccc1CNCc1ccc(-c2cnc(N3CCCC(c4ccccc4)C3)nc2)cc1 (stereo not given)"
discrete_label = "met"

[[record]]
compound = "Cc1nc(-c2cccc(Nc3nccc(NCC(O)c4ccccc4C)n3)c2)cs1 (stereo not given)"
discrete_label = "not met"

[[record]]
compound = "O=C(/C=C/c1ccccc1O)N1CCC(CCN2CCC(c3c[nH]c4ccccc34)CC2)CC1"
discrete_label = "not met"

[[record]]
compound = "Nc1nc(N)c2c(ccc3c2ccn3CCCC(F)(F)F)n1"
discrete_label = "not met"

[[record]]
compound = "Cc1cccc2[nH]c(-c3ccc(-c4cccc(CN5CCN(CCN6CCOCC6)CC5)c4)s3)nc12"
discrete_label = "not met"

[[record]]
compound = "CCCCNc1ccc(C(=O)NC2CCN(C[C@H](O)c3ccnc4ccc(OC)cc34)CC2)cc1"
discrete_label = "met"

[[record]]
compound = "COc1cc2c(cc1C(F)(F)F)N(C(=O)Nc1ccc(Br)cn1)CC2"
discrete_label = "met"

[[record]]
compound = "Cc1ccc(NC(=O)c2ccc(Cl)cc2)cc1-c1ccc(C(=O)Nc2ccncc2)cc1"
discrete_label = "not met"


Query: Is inhibition of O=C(c1ccccc1)N1CCC[C@](CCCN2CCN(c3ccccc3O)CC2)(c2ccc(Cl)c(Cl)c2)C1 strictly below 30%?
Reply: met

Query: Is inhibition of CS(=O)(=O)Cc1cccc(Nc2ncc(Cl)c(Nc3cccnc3C(N)=O)n2)c1 strictly below 30%?
Reply: not met

Query: Is inhibition of CCn1c(-c2nonc2N)nc2c(-c3cccc(NC(=O)Nc4ccc(C(F)(F)F)cc4)c3)ncc(OCCCN)c21 strictly below 30%?
Reply: not met

Query: Is inhibition of NC(=O)c1c(Cl)nc2ccccc2c1Cl strictly below 30%?
Reply: met

Query: Is inhibition of O=C(Nc1ccc(Cl)cc1)Nc1ccc(-c2cccc(-c3nc4ccc(F)cc4[nH]3)c2)cc1 strictly below 30%?
Reply: not met

Query: Is inhibition of CC1CCN(Cc2cccc(C(=O)NCc3ccc(F)c(-c4cccc(CN5CCN[C@@H](C)C5)c4)c3)c2)CC1 strictly below 30%?
Reply: met

Query: Is inhibition of CCCCNCc1ccc(-c2nc(CN(Cc3ccc(Cl)c(Cl)c3)C(=O)CN(C)C)cs2)cc1 strictly below 30%?
Reply: not met

====

Assay: HDN33 neuroblastoma growth inhibition, cell-based, chromothripsis tumors, cisplatin or BGB combos (AID 1671450);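 note: cells exposed to compound for four days; 0% = vehicle DMSO and 100% = cell killing by high DMSO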
Details: HDN33 neuroblastoma cells, BGB combo, at 5 µM, stronger effect = higher value
Below is a list of entries, each paired with its recorded inhibition value.
Number in %, nothing else.

Some solved cases for reference:
[[record]]
compound = "O=c1cc(-c2cccc3c2Sc2ccccc2S3)oc(N2CCOCC2)c1"
measurement_kind = "inhibition"
value_measured = -23.9

[[record]]
compound = "NC(=O)c1ncn(C2OC(CO)C(O)C2O)n1 (configuration not stated)"
measurement_kind = "inhibition"
value_measured = 31.2

[[record]]
compound = "O=c1[nH]c(-c2ccc(C(F)(F)F)cc2)nc2c1CSCC2"
measurement_kind = "inhibition"
value_measured = 8.65

[[record]]
compound = "CC(C)N=c1cc2n(-c3ccc(Cl)cc3)c3ccccc3nc-2cc1Nc1ccc(Cl)cc1"
measurement_kind = "inhibition"
value_measured = -36.1

[[record]]
compound = "CO[C@H]1/C=C/O[C@@]2(C)Oc3c(C)c(O)c4c(O)c(c(C=NN5CCN(C)CC5)c(O)c4c3C2=O)NC(=O)/C(C)=C\\C=C\\[C@H](C)[C@H](O)[C@@H](C)[C@@H](O)[C@@H](C)[C@H](OC(C)=O)[C@@H]1C"
measurement_kind = "inhibition"
value_measured = 2


Query: Data request, read-out inhibition, for O=c1ncccn1[C@@H]1O[C@H](CO)[C@@H](O)[C@H]1O
Reply: -58.6

Query: Data request, read-out inhibition, for O=C(Nc1ccccc1)c1ccccc1O
Reply: 22.1

// provenance: PubChem BioAssay
